measuredOn: human orexin-2 receptor (Homo sapiens (Human))
assayOverview: In vitro assay: intracellular calcium measurements (FLIPR), antagonistic activity
measurementParameters: CHO cells expressing human orexin-2 receptor, orexin-A agonist, geometric mean, read-out: IC50 Ox2
experimentalEndpoint: IC50 (nM)
Just the number please, in nM, no unit attached.

C=C1C[C@@H](c2nc3cc(Cl)c(C(F)(F)F)cc3[nH]2)N(C(=O)c2cc(C)c(C)cc2-n2nccn2)C1	2
Cc1nc(C(=O)N2CCCC2c2nc3c(Cl)cc(C(F)(F)F)cc3[nH]2)c(-c2cccc(Cl)c2)s1 (stereo not shown)	104
C[C@@]1(c2nc3cc(Cl)c(C(F)(F)F)cc3[nH]2)CCCN1C(=O)c1nc(-c2ccc(F)cc2)sc1-c1ccc(F)cc1	347
Cc1ccc(C(=O)N2CC[C@H](C)[C@H]2c2nc3c(C)c(Cl)ccc3[nH]2)c(-c2ncccn2)c1	132
Cc1c(Cl)ccc2[nH]c([C@]3(C)CCCN3C(=O)c3ccccc3-n3nccn3)nc12	14

// query Query: IC50; subject: CO[C@H]1CN(C(=O)c2cc(C(F)(F)F)ccc2-n2nccn2)C(C)(c2nc3c(C)c(Cl)ccc3[nH]2)C1 (stereo partly shown)
// result 252

// query Query: IC50; subject: C=C1CC(c2nc3cc(Cl)c(C)cc3[nH]2)N(C(=O)c2nc(C3CC3)sc2-c2cccc(C)c2)C1 (racemic)
// result 2

----------
measuredOn: human orexin-2 receptor (Homo sapiens (Human), UniProt O43614)
Sequence (O43614 whole entry): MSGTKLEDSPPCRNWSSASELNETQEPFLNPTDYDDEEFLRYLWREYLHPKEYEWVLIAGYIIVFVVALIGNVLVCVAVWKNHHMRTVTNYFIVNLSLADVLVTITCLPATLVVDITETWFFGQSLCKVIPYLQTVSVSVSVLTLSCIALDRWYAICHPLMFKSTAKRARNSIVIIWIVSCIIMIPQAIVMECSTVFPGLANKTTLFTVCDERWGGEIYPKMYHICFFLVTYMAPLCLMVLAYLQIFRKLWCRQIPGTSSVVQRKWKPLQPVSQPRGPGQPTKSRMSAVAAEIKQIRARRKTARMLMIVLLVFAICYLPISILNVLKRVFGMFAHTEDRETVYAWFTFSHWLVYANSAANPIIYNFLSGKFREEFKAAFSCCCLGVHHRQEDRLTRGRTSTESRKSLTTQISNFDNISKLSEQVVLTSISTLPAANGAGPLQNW
assayOverview: In vitro assay: intracellular calcium measurements (FLIPR), antagonistic activity
Format: cell-based
measurementParameters: CHO cells expressing human orexin-2 receptor, orexin-A agonist, geometric mean, read-out: IC50 Ox2
Listed next: entries and their corresponding IC50.
Just the number please, in nM, no unit attached.

Recorded IC50, per entry:
Cc1ccc(-c2cccc(OC(F)(F)F)c2)c(C(=O)N2CCC[C@@]2(C)c2nc3cc(C(F)(F)F)c(Cl)cc3[nH]2)c1	401
Cc1cc(C(=O)N2CCC[C@@]2(C)c2nc3cc(C(F)(F)F)c(Cl)cc3[nH]2)c(-n2nccn2)cc1C	6
Cc1nc(C(=O)N2CCC[C@@]2(C)c2nc3c(C)c(Cl)ccc3[nH]2)c(-c2ccccc2)s1	4

// query Query: IC50; subject: COc1ccc(-c2ccc(C#N)cc2)c(C(=O)N2CCC[C@@]2(C)c2nc3c(C)c(Cl)ccc3[nH]2)c1F
// result 122

----------
measuredOn: human orexin-1 receptor (Homo sapiens (Human), UniProt O43613)
Sequence (O43613 whole entry): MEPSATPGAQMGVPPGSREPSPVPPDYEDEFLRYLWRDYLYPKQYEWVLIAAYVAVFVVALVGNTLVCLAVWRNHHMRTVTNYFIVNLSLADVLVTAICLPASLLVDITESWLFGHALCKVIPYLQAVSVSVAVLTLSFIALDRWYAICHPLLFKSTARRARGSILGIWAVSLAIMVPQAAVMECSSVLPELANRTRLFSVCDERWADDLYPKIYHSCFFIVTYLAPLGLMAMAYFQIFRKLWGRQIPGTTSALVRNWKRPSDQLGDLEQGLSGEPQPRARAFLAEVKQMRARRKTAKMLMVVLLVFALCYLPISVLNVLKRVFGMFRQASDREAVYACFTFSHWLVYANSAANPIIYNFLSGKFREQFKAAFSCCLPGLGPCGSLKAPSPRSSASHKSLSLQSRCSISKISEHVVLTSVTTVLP
assayOverview: In vitro assay: intracellular calcium measurements (FLIPR), antagonistic activity
measurementParameters: CHO cells expressing human orexin-1 receptor, orexin-A agonist, geometric mean, read-out: IC50 Ox1
Description: In Vitro Assay: Intracellular Calcium Measurements: […] Within the Fluorescent Imaging Plate Reader (FLIPR Tetra, Molecular Devices), antagonists are added to the plate in a volume of 10 μl/well, incubated for 120 min and finally 10 μl/well of agonist is added. […] The calculated IC50 values may fluctuate depending on the daily cellular assay performance. […]
Listed next: entries and their corresponding pIC50.
Remember the convention: pIC50 equals -log10 of concentration in molar.

Cc1ccc(-c2ccccn2)c(C(=O)N2CCC[C@@]2(C)c2nc3cc(OC(F)(F)F)ccc3[nH]2)c1 [Ex. 5.239]	7.46

// query Query: pIC50; subject: CO[C@@H]1C[C@@H](c2nc3ccc(Cl)c(C)c3[nH]2)N(C(=O)c2cc(F)ccc2-n2nccn2)C1 [Ex. 3.18]
// result 7.01

// query Query: pIC50; subject: Cc1nc(C(=O)N2CC[C@H](C)[C@H]2c2nc3c(C)cc(Cl)cc3[nH]2)c(-c2ccc(Cl)cc2)s1 [Ex. 4.94]
// result 8.52

// query Query: pIC50; subject: CCOc1ccc(-c2ccc(C)cc2C(=O)N2CCC[C@@]2(C)c2nc3cc(C(F)(F)F)c(Cl)cc3[nH]2)cc1 [Ex. 5.162]
// result 6.60

// query Query: pIC50; subject: Cc1ccc(-n2nccn2)c(C(=O)N2CCC[C@@]2(C)c2nc3cc(C(F)(F)F)c(F)cc3[nH]2)c1 [Ex. 5.22]
// result 8.15

// query Query: pIC50; subject: COc1ccc2nc([C@@H]3CCCN3C(=O)c3cc(OC)c(OC)cc3-n3nccn3)[nH]c2c1 [Ex. 1.162]
// result 6.34

The reported numbers originate from patent US9732075B2.
